Below, each entry is listed with its recorded IC50.
- test.system: EGFR wildtype (WT) (Homo sapiens)
- Sequence (P00533 25-1210): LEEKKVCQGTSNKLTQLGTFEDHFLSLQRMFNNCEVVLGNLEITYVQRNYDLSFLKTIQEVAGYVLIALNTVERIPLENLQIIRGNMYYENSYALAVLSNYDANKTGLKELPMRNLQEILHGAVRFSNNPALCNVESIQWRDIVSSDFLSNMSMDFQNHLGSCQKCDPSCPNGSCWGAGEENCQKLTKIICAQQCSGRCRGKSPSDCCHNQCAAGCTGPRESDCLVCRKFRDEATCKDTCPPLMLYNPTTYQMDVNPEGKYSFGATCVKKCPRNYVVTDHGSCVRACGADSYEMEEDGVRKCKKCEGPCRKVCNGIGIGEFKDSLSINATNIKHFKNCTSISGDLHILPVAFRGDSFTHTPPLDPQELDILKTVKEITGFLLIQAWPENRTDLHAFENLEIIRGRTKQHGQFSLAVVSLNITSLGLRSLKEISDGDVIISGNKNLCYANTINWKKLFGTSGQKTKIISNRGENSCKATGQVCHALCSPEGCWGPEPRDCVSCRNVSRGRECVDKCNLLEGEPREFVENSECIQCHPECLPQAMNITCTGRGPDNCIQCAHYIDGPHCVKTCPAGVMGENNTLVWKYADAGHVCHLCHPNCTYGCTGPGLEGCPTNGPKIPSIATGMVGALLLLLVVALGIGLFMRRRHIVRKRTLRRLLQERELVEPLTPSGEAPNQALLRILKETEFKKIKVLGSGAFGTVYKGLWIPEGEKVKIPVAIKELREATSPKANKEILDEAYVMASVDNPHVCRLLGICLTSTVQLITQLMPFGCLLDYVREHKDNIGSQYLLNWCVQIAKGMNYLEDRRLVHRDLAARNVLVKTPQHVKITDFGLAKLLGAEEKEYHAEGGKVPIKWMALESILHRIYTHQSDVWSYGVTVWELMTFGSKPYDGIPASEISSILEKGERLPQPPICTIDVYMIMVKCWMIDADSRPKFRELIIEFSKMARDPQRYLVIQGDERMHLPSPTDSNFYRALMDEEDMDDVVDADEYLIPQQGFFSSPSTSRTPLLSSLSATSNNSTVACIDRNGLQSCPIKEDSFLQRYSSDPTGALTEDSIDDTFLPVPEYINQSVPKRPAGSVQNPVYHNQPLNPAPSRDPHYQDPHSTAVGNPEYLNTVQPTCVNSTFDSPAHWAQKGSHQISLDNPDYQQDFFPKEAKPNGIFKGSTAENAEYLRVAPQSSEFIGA
- assay.name: Biochemical EGFR kinase inhibition assay (Lance Ultra TR-FRET), wildtype
- condition.summary: Km ATP; read-out: IC50 WT (nM) Km ATP
metric.name: IC50 (nM)

INSERT INTO measurements (compound, test_value) VALUES
  ('COC1CCN(c2cc(Nc3ccnc(-c4cnn(S(=O)(=O)C5CC5)c4)n3)ncc2C#Cc2cnn(C3CCN(C(C)=O)CC3)c2)CC1 [Example 113]', 12),
  ('O=S(=O)(C1CC1)n1cc(-c2nccc(Nc3cc(N4CCCC(CO)C4)c(C#Cc4cnn(C5CCOCC5)c4)cn3)n2)cn1 (stereo not drawn) [Example 100]', 62),
  ('O=S(=O)(C1CC1)n1cc(-c2nccc(Nc3cc(N4CCC(CO)CC4)c(C#Cc4cnn(CCF)c4)cn3)n2)cn1 [Example 30]', 8.2),
  ('CN(CCO)c1cc(Nc2ccnc(-c3cnn(S(=O)(=O)C4CC4)c3)n2)ncc1C#Cc1cnn(CCF)c1 [Example 38]', 368),
  ('Cn1ccc(C#Cc2cnc(Nc3ccnc(-c4cnn(S(=O)(=O)C5CC5)c4)n3)cc2N2CCC(NCCF)CC2)n1 [Example 141]', 256),
  ('Cn1cc(C#Cc2cnc(Nc3ccnc(-c4cnn(S(=O)(=O)C5CC5)c4)n3)cc2-c2cnn(C)c2)cn1 [Example 233]', 1340),
  ('CN(C)C[C@H]1CC[C@H](CNc2cc(Nc3ccnc(-c4cnn(S(=O)(=O)C5CC5)c4)n3)ncc2C#Cc2cnn(C)c2)CC1 [Example 53]', 142),
  ('CC(=O)N1CCC(n2cc(C#Cc3cnc(Nc4ccnc(-c5cnn(S(=O)(=O)C6CC6)c5)n4)cc3N3CCCC(O)C3)cn2)CC1 (stereo not drawn) [Example 114]', 17.4),
  ('O=S(=O)(C1CC1)n1cc(-c2nccc(Nc3cc(N[C@H]4CC[C@@H](O)CC4)c(C#Cc4cnn(C5CCOCC5)c4)cn3)n2)cn1 [Example 94]', 32.3),
  ('CNC1CCN(c2cc(Nc3ccnc(-c4cnn(S(=O)(=O)C5CC5)c4)n3)ncc2C#Cc2ccn(C)n2)CC1 [Example 140]', 622),
  ('O=S(=O)(C1CC1)n1cc(-c2nccc(Nc3cc(N4CC[C@@H](O)C4)c(C#Cc4cnn(CCF)c4)cn3)n2)cn1 [Example 32]', 29.4),
  ('CC(=O)N1CCC(n2cc(C#Cc3cnc(Nc4ccnc(-c5cnn(S(=O)(=O)C6CC6)c5)n4)cc3N3CCCC(CO)C3)cn2)CC1 (stereo not drawn) [Example 115]', 19.6);

###

- test.system: EGFR L858R/T790M/C797S (Homo sapiens, UniProt P00533, C797S/L858R/T790M)
- Sequence (P00533 25-1210 T790M/C797S/L858R): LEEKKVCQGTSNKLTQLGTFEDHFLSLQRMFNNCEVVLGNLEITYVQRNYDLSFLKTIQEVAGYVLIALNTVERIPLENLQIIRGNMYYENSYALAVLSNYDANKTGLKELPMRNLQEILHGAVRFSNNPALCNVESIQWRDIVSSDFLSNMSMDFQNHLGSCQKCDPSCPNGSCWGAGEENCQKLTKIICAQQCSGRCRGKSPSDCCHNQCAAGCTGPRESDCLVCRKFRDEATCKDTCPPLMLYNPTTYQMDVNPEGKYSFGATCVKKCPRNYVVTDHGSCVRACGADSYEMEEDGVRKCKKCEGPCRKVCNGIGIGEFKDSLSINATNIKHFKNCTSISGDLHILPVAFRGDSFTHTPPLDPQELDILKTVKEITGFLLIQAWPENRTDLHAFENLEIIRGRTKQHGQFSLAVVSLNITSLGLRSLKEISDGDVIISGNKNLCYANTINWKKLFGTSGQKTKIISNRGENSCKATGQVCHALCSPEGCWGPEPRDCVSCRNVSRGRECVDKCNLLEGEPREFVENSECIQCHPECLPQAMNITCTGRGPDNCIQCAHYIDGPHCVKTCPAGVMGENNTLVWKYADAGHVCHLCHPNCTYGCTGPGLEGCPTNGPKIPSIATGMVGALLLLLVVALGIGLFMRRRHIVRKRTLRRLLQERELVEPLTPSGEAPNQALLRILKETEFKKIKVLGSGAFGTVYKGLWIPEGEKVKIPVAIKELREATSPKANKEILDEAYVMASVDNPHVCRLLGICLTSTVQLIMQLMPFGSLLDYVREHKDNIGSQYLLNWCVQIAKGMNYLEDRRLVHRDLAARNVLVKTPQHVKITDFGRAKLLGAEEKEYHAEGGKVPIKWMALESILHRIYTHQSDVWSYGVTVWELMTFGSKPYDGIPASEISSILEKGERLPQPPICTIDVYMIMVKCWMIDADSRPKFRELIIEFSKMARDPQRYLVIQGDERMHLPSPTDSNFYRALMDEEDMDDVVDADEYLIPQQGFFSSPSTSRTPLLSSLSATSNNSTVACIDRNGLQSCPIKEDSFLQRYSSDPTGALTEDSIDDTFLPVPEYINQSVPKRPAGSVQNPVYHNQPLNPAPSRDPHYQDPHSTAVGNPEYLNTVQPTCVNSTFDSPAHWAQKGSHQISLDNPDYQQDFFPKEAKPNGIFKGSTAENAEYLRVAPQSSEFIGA
- assay.name: Biochemical EGFR kinase inhibition assay (Lance Ultra TR-FRET), triple mutant L858R/T790M/C797S
- condition.summary: IC50 L858R/T790M/C797S (nM), 100 μM ATP
So basically: is IC50 under 0.5 nM? Then 1. Not under? Then 0.

INSERT INTO measurements (compound, class_assignment) VALUES
  ('CC(C)(C#Cc1cnc(Nc2ccnc(-c3cnn(S(=O)(=O)C4CC4)c3)n2)cc1N[C@H]1CC[C@@H](O)CC1)N1CCOCC1', 0),
  ('Nc1cccc(C#Cc2cnc(Nc3ccnc(-c4cnn(S(=O)(=O)C5CC5)c4)n3)cc2N[C@@H]2CCC[C@H](O)C2)c1', 0),
  ('CN(C)CC1(C)CCN(c2cc(Nc3ccnc(-c4cnn(S(=O)(=O)C5CC5)c4)n3)ncc2C#CC2(C)CC2)CC1', 0),
  ('O=S(=O)(C1CC1)n1cc(-c2nccc(Nc3cc(N4CCC(CCO)CC4)c(C#Cc4cnn(C5CC5(F)F)c4)cn3)n2)cn1 (centres unmarked)', 0),
  ('CS(=O)(=O)N1CCC(C#Cc2cnc(Nc3ccnc(-c4cnn(S(=O)(=O)C5CC5)c4)n3)cc2NCC2CCC(O)CC2)C1 (centres unmarked)', 0),
  ('CN(C)CCC1CCN(c2cc(Nc3ccnc(-c4cnn(S(=O)(=O)C5CC5)c4)n3)ncc2C#Cc2cnn(C(F)(F)F)c2)CC1', 1),
  ('CC1(CO)CCN(c2cc(Nc3ccnc(-c4cnn(S(=O)(=O)C5CC5)c4)n3)ncc2C#CC2(O)COC2)CC1', 1),
  ('CN(C)C[C@H]1CC[C@@H](Nc2cc(Nc3ccnc(-c4cnn(S(=O)(=O)C5CC5)c4)n3)ncc2C#Cc2cnn(C3CC3)c2)CC1', 1),
  ('Cn1cc(C#Cc2cnc(Nc3ccnc(-c4cnn(S(=O)(=O)C5CC5)c4)n3)cc2N[C@H]2CC[C@@](C)(O)CC2)cn1', 1),
  ('O=S(=O)(C1CC1)n1cc(-c2nccc(Nc3cc(N[C@H]4CCC[C@H](O)C4)c(C#Cc4cnn(C(F)(F)F)c4)cn3)n2)cn1', 0);

###

- test.system: EGFR L858R/C797S (Homo sapiens, UniProt P00533, C797S/L858R)
- Sequence (P00533 25-1210 C797S/L858R): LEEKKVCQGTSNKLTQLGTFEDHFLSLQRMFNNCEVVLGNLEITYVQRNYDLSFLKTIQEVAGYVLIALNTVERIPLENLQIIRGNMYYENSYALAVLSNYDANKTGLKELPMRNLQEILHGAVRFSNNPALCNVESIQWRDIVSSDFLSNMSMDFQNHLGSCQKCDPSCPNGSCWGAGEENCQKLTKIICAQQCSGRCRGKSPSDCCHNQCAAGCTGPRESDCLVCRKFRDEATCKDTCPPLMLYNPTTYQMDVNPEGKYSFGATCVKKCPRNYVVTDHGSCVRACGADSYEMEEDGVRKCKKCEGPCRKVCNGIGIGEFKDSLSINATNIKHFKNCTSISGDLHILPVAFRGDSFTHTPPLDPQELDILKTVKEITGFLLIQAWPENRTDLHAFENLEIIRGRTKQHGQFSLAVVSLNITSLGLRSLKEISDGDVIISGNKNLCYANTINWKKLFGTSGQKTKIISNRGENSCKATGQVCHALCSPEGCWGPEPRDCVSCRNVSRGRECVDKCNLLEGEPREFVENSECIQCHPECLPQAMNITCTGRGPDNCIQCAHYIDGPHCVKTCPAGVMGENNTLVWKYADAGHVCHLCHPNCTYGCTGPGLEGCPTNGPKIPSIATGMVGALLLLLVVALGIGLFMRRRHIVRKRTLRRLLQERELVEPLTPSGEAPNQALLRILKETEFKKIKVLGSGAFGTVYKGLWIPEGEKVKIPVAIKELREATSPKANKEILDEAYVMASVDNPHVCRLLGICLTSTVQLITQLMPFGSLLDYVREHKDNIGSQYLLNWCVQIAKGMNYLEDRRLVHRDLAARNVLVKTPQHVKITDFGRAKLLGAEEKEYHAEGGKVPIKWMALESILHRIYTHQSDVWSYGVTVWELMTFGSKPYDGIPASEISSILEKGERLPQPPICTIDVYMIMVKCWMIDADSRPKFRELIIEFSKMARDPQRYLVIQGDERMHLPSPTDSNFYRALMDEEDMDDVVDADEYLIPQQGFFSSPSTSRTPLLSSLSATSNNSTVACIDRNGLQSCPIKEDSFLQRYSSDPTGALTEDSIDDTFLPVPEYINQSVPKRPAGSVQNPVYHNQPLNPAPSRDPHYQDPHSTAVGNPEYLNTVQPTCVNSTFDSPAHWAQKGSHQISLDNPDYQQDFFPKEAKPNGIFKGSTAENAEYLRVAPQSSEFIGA
- assay.name: Biochemical EGFR kinase inhibition assay (Lance Ultra TR-FRET), double mutant L858R/C797S
- condition.summary: ATP at Km; read-out: IC50 L858R/C797S (nM), Km ATP
Counter-ions that a name gives are not always drawn.
Listing of entries alongside the reported IC50.
metric.name: IC50 (nM)

INSERT INTO results (compound, metric_name, test_value) VALUES
  ('CN(C)C[C@H]1CC[C@@H](Nc2cc(Nc3ccnc(-c4cnn(S(=O)(=O)C5CC5)c4)n3)ncc2C#Cc2cnn(CC(F)F)c2)CC1', 'IC50', 0.7),
  ('CC1(CO)CCN(c2cc(Nc3ccnc(-c4cnn(S(=O)(=O)C5CC5)c4)n3)ncc2C#CCC(F)(F)F)CC1', 'IC50', 12.3),
  ('O=S(=O)(C1CC1)n1cc(-c2nccc(Nc3cc(N[C@H]4CC[C@@H](O)CC4)c(C#Cc4ccc(CN5CCOCC5)cn4)cn3)n2)cn1', 'IC50', 3.2),
  ('O=S(=O)(C1CC1)n1cc(-c2nccc(Nc3cc(NC4CCC(O)CC4)c(C#CC4CCOC4)cn3)n2)cn1 (stereo not shown)', 'IC50', 2.5),
  ('CC1(CO)CCN(c2cc(Nc3ccnc(-c4cnn(S(=O)(=O)C5CC5)c4)n3)ncc2C#Cc2cccc(C(=O)N3CCOCC3)n2)CC1', 'IC50', 0.9),
  ('CC1(CO)CCN(c2cc(Nc3ccnc(-c4cnn(S(=O)(=O)C5CC5)c4)n3)ncc2C#Cc2cnn3c2CN(CC(F)F)CC3)CC1', 'IC50', 8.6),
  ('CN(C)CC1(F)CCN(c2cc(Nc3ccnc(-c4cnn(S(=O)(=O)C5CC5)c4)n3)ncc2C#Cc2cnn(C3CC3)c2)CC1', 'IC50', 13.5),
  ('CN(C)Cc1ccc(C#Cc2cnc(Nc3ccnc(-c4cnn(S(=O)(=O)C5CC5)c4)n3)cc2N2CCC(C)(CO)CC2)cc1', 'IC50', 2.1),
  ('CN(C)CC1(C)CCN(c2cc(Nc3ccnc(-c4cnn(S(=O)(=O)C5CC5)c4)n3)ncc2C#Cc2cnn(C)c2)CC1', 'IC50', 1.4),
  ('CC1(CO)CCN(c2cc(Nc3ccnc(-c4cnn(S(=O)(=O)C5CC5)c4)n3)ncc2C#Cc2cnn(CC3CCOC3)c2)CC1 (stereo not shown)', 'IC50', 0.9),
  ('CN(C)CCC1CCN(c2cc(Nc3ccnc(-c4cnn(S(=O)(=O)C5CC5)c4)n3)ncc2C#Cc2cnn(C)c2)CC1 [Example 294, formate]', 'IC50', 0.3),
  ('CC(C)(O)[C@H]1CC[C@@H](Nc2cc(Nc3ccnc(-c4cnn(S(=O)(=O)C5CC5)c4)n3)ncc2C#Cc2ccc(CN3CCOCC3)cc2)CC1', 'IC50', 39.9),
  ('CCc1cnc(C#Cc2cnc(Nc3ccnc(-c4cnn(S(=O)(=O)C5CC5)c4)n3)cc2N[C@@H]2CCC[C@H](O)C2)s1', 'IC50', 784),
  ('CN(C)CC1CCN(c2cc(Nc3ccnc(-c4cnn(S(=O)(=O)C5CC5)c4)n3)ncc2C#Cc2cnn(C3CC3)c2)CC1', 'IC50', 18.5),
  ('Cn1cc(C#Cc2cnc(Nc3ccnc(-c4cnn(S(=O)(=O)C5CC5)c4)n3)cc2N2CCC3(CCNCC3)C2)cn1', 'IC50', 6.4),
  ('CC1(CO)CCN(c2cc(Nc3ccnc(Nc4ccccc4S(C)(=O)=O)n3)ncc2C#Cc2cnn(C(F)F)c2)CC1', 'IC50', 439),
  ('CN1CCN(Cc2ccc(C#Cc3cnc(Nc4ccnc(-c5cnn(S(=O)(=O)C6CC6)c5)n4)cc3N3CCC(C)(CO)CC3)cn2)CC1', 'IC50', 0.6),
  ('CC1(CO)CCN(c2cc(Nc3ccnc(-c4cnn(S(=O)(=O)C5CC5)c4)n3)ncc2C#CCCO)CC1', 'IC50', 1),
  ('CC1(CO)CCN(c2cc(Nc3ccnc(-c4cnn(S(=O)(=O)C5CC5)c4)n3)ncc2C#Cc2cnn(C3CCOC3)c2)CC1 (stereo not shown)', 'IC50', 1);
